The origin of these recorded values is the RNAGym collection of RNA variant scans (doi:10.7554/elife.90254).

B1: OR4K15 (parent)
chain: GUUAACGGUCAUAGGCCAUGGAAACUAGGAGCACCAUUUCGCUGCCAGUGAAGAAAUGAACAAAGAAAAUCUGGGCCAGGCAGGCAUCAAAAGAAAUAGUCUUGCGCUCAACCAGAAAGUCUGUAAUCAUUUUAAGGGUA

# Variants of: B1
# run_description: self-cleavage, relative activity (ratio to wild type); higher = more cleavage; in vitro, sequencing; the parent is a self-cleaving ribozyme
Cut-off 1 on self-cleavage, inclusive. At or above means met; below means not met.

Problem: Does self-cleavage meet or surpass 1 for A11G U120C ?
Solution: not met

Problem: Does self-cleavage meet or surpass 1 for A63G U97A ?
Solution: met

Problem: Does self-cleavage meet or surpass 1 for C81U U131C ?
Solution: not met

Problem: Does self-cleavage meet or surpass 1 for A78G A116G ?
Solution: not met

Problem: Does self-cleavage meet or surpass 1 for A23U A140C ?
Solution: met

Problem: Does self-cleavage meet or surpass 1 for A78G A91G ?
Solution: not met

Problem: Does self-cleavage meet or surpass 1 for U43C C107U ?
Solution: not met

Problem: Does self-cleavage meet or surpass 1 for A98G A110G ?
Solution: not met

Problem: Does self-cleavage meet or surpass 1 for A23U U49C ?
Solution: met

Problem: Does self-cleavage meet or surpass 1 for A96G A110U ?
Solution: met

Problem: Does self-cleavage meet or surpass 1 for A23G G75A ?
Solution: not met

Problem: Does self-cleavage meet or surpass 1 for U2C U131A ?
Solution: met

Problem: Does self-cleavage meet or surpass 1 for U49C A82G ?
Solution: not met

Problem: Does self-cleavage meet or surpass 1 for U19C G75C ?
Solution: not met

Problem: Does self-cleavage meet or surpass 1 for U39C A64C ?
Solution: met

Problem: Does self-cleavage meet or surpass 1 for G79A A140G ?
Solution: not met

Problem: Does self-cleavage meet or surpass 1 for U49A A126U ?
Solution: met

Problem: Does self-cleavage meet or surpass 1 for A78G U122A ?
Solution: not met

Problem: Does self-cleavage meet or surpass 1 for A66U A117G ?
Solution: met

Problem: Does self-cleavage meet or surpass 1 for A5C C105U ?
Solution: not met

Problem: Does self-cleavage meet or surpass 1 for A64G C109U ?
Solution: not met

Problem: Does self-cleavage meet or surpass 1 for A22G A129U ?
Solution: not met

Problem: Does self-cleavage meet or surpass 1 for A13G U108A ?
Solution: not met

Problem: Does self-cleavage meet or surpass 1 for G75A A135G ?
Solution: not met

Problem: Does self-cleavage meet or surpass 1 for A27G A78G ?
Solution: not met

Problem: Does self-cleavage meet or surpass 1 for A33C G74A ?
Solution: not met

Problem: Does self-cleavage meet or surpass 1 for A52U A111G ?
Solution: not met

Problem: Does self-cleavage meet or surpass 1 for A56G A92G ?
Solution: met

Problem: Does self-cleavage meet or surpass 1 for A47G U102C ?
Solution: met

Problem: Does self-cleavage meet or surpass 1 for A114U U132C ?
Solution: not met

Problem: Does self-cleavage meet or surpass 1 for A23U A30G ?
Solution: met

Problem: Does self-cleavage meet or surpass 1 for A51G U120G ?
Solution: met

Problem: Does self-cleavage meet or surpass 1 for U127A A140U ?
Solution: met

Problem: Does self-cleavage meet or surpass 1 for U43A U57C ?
Solution: met

Problem: Does self-cleavage meet or surpass 1 for U43C A59C ?
Solution: not met

Problem: Does self-cleavage meet or surpass 1 for U72C A78C ?
Solution: not met

Problem: Does self-cleavage meet or surpass 1 for A110G A129G ?
Solution: not met

Problem: Does self-cleavage meet or surpass 1 for A47U U70C ?
Solution: not met

Problem: Does self-cleavage meet or surpass 1 for U120A A140G ?
Solution: met

Problem: Does self-cleavage meet or surpass 1 for U57A G106A ?
Solution: not met

Problem: Does self-cleavage meet or surpass 1 for C6U A134G ?
Solution: met

Problem: Does self-cleavage meet or surpass 1 for U2C G29A ?
Solution: met

Problem: Does self-cleavage meet or surpass 1 for C34U A68G ?
Solution: met

Problem: Does self-cleavage meet or surpass 1 for U2A U49A ?
Solution: met

Problem: Does self-cleavage meet or surpass 1 for C45U U103C ?
Solution: not met

Problem: Does self-cleavage meet or surpass 1 for A36G C128A ?
Solution: met

Problem: Does self-cleavage meet or surpass 1 for U39C A56G ?
Solution: not met

Problem: Does self-cleavage meet or surpass 1 for A22U A56G ?
Solution: met

Problem: Does self-cleavage meet or surpass 1 for A55G C77U ?
Solution: met

Problem: Does self-cleavage meet or surpass 1 for U70C C128U ?
Solution: not met

Problem: Does self-cleavage meet or surpass 1 for A60U A90G ?
Solution: met

Problem: Does self-cleavage meet or surpass 1 for A89C U130C ?
Solution: met

Problem: Does self-cleavage meet or surpass 1 for A18G A51U ?
Solution: met

Problem: Does self-cleavage meet or surpass 1 for A63U A90G ?
Solution: met

Problem: Does self-cleavage meet or surpass 1 for A36C U43C ?
Solution: met

Problem: Does self-cleavage meet or surpass 1 for U37C U133A ?
Solution: met

Problem: Does self-cleavage meet or surpass 1 for A63G U108G ?
Solution: not met

Problem: Does self-cleavage meet or surpass 1 for G8A C77U ?
Solution: met

Problem: Does self-cleavage meet or surpass 1 for A11G A68U ?
Solution: met

Problem: Does self-cleavage meet or surpass 1 for A24C A114G ?
Solution: not met

Problem: Does self-cleavage meet or surpass 1 for U38C U57G ?
Solution: met

Problem: Does self-cleavage meet or surpass 1 for U12C U103C ?
Solution: met

Problem: Does self-cleavage meet or surpass 1 for A51G A78G ?
Solution: not met

Problem: Does self-cleavage meet or surpass 1 for U87C A118U ?
Solution: not met

Problem: Does self-cleavage meet or surpass 1 for C109A A140G ?
Solution: not met

Problem: Does self-cleavage meet or surpass 1 for U37G ?
Solution: met

Problem: Does self-cleavage meet or surpass 1 for A96C A118U ?
Solution: not met

Problem: Does self-cleavage meet or surpass 1 for A51U U130A ?
Solution: met

Problem: Does self-cleavage meet or surpass 1 for A95G A125U ?
Solution: not met

Problem: Does self-cleavage meet or surpass 1 for A27G A86G ?
Solution: met

Problem: Does self-cleavage meet or surpass 1 for A69U A111G ?
Solution: not met

Problem: Does self-cleavage meet or surpass 1 for A62G U133C ?
Solution: met

Problem: Does self-cleavage meet or surpass 1 for C128A U139C ?
Solution: met

Problem: Does self-cleavage meet or surpass 1 for U103C A134G ?
Solution: met

Problem: Does self-cleavage meet or surpass 1 for A78C U133C ?
Solution: not met

Problem: Does self-cleavage meet or surpass 1 for U122C U131C ?
Solution: met

Problem: Does self-cleavage meet or surpass 1 for A110C A135U ?
Solution: not met

Problem: Does self-cleavage meet or surpass 1 for U19A A54G ?
Solution: met

Problem: Does self-cleavage meet or surpass 1 for A59G A78G ?
Solution: not met

Problem: Does self-cleavage meet or surpass 1 for C81A A90G ?
Solution: not met

Problem: Does self-cleavage meet or surpass 1 for A36U A82U ?
Solution: not met

Problem: Does self-cleavage meet or surpass 1 for A47U A135C ?
Solution: met

Problem: Does self-cleavage meet or surpass 1 for A114G G138C ?
Solution: not met

Problem: Does self-cleavage meet or surpass 1 for A90U A125G ?
Solution: not met

Problem: Does self-cleavage meet or surpass 1 for A110G U132A ?
Solution: not met

Problem: Does self-cleavage meet or surpass 1 for A22G A111U ?
Solution: not met

Problem: Does self-cleavage meet or surpass 1 for A54G U130A ?
Solution: met

Problem: Does self-cleavage meet or surpass 1 for A66G C81G ?
Solution: not met

Problem: Does self-cleavage meet or surpass 1 for A68G C121U ?
Solution: not met

Problem: Does self-cleavage meet or surpass 1 for U12A A96G ?
Solution: met
